Provenance of the data: patent US9296734B2

Target: Beta Secretase enzyme (BACE) (Homo sapiens (Human))
Sequence (P56817 46-501): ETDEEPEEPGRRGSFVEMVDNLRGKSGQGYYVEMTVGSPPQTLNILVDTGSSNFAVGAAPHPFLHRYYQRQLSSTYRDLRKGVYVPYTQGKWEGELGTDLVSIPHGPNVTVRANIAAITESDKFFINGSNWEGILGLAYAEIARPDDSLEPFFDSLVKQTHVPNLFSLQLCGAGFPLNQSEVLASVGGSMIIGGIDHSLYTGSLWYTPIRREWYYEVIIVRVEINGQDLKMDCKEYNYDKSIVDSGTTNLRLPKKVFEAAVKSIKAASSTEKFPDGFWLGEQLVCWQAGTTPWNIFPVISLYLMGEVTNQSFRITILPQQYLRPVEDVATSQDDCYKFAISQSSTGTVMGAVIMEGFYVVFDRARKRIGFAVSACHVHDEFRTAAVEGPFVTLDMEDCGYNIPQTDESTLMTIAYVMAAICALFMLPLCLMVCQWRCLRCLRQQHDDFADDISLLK
Test: In vitro enzymatic BACE FRET assay
Format: biochemical
Settings: average IC50; read-out: BACE 1 FRET assay IC50
endpoint.label: pIC50
# log scale: pIC50 equals minus log10 of the concentration in mol/L

The compound "COc1cnc(C(=O)Nc2ccc(F)c([C@]3(C)C[C@@H](C(F)(F)F)OC(N)=N3)c2)cn1" , tested on Beta Secretase enzyme (BACE) (Homo sapiens (Human)), showed pIC50 of 7.52

Lab entry: Beta Secretase enzyme (BACE) (Homo sapiens (Human)) assay, compound "Cc1cc(OC(F)F)cnc1C(=O)Nc1ccc(F)c([C@]2(C)C[C@@H](C(F)(F)F)OC(N)=N2)n1" , pIC50 = 6.99

Beta Secretase enzyme (BACE) (Homo sapiens (Human)) assay, compound "NC1=N[C@](CF)(c2cc(NC(=O)c3ccc(F)cn3)ccc2F)C[C@@H](C(F)(F)F)O1" , recorded pIC50 = 7.14

Record for "Cc1c(C(=O)Nc2ccc(F)c([C@]3(CF)C[C@@H](C(F)(F)F)OC(N)=N3)c2)nc2ccc(Cl)cn12" under target or system Beta Secretase enzyme (BACE) (Homo sapiens (Human)): pIC50 reported as 7.44

----------
Target: Beta Secretase enzyme (BACE) (Homo sapiens (Human))
Assay: In vitro enzymatic BACE FRET assay
Assay type: biochemical
Conditions: average IC50, BACE enzyme assay; read-out: BACE 1 FRET assay IC50
endpoint.label: pIC50
Please report pIC50 as the negative decimal logarithm of the molar concentration, giving only the number.

Entry NC1=N[C@](CF)(c2cc(Nc3cc(-c4ccccc4)ccn3)ccc2F)C[C@@H](C(F)(F)F)O1 [Example 115] , pIC50 reported as 5.10

The value of pIC50 measured for the compound C[C@@]1(c2cc(Nc3nc4cc(Cl)ccc4o3)ccc2F)C[C@@H](C(F)(F)F)OC(N)=N1 [Example 30] turned out to be 4.57

Value of pIC50 reported for the compound C[C@@]1(c2cc(Nc3ncc(F)c4cc(C#N)cnc34)cc(F)c2F)C[C@@H](C(F)(F)F)OC(N)=N1 [Example 177] is 7.52

Kindly note the recorded pIC50 for C[C@@]1(c2cc(Nc3nccc4cc(Cl)cnc34)cc(F)c2F)C[C@@H](C(F)(F)F)OC(N)=N1 [Example 176] , which is 7.68

pIC50 reported for this compound C[C@@]1(c2cc(NC(=O)c3ccc(OCC(F)(F)F)cn3)cnc2F)C[C@@H](C(F)(F)F)OC(N)=N1 [Example 65] : 7.10

Lookup result for NC1=N[C@](CF)(c2nc(NC(=O)c3ccc(Cl)cn3)ccc2F)C[C@@H](C(F)(F)F)O1 [Example 136] ; measured pIC50: 6.77

# pIC50 of NC1=N[C@](CF)(c2cc(-c3nc4ccc(Cl)cc4o3)ccc2F)C[C@@H](C(F)(F)F)O1 [Example 105] = 6.27

# compound Cc1cc(C(F)F)cnc1C(=O)Nc1cc(F)c(F)c([C@]2(C)C[C@@H](C(F)(F)F)OC(N)=N2)c1 [Example 171] ; its pIC50 = 7.37

Measured pIC50, C#CCOc1cnc(C(=O)Nc2cc(F)c(F)c([C@]3(CF)C[C@@H](C(F)(F)F)OC(N)=N3)c2)cn1 [Example 154] : 8.85

Lab note: measured pIC50 of COc1cnc(C(=O)Nc2cc(F)c(F)c([C@]3(C)C[C@@H](C(F)(F)F)OC(N)=N3)c2)c(Cl)c1 [Example 169] was 7.43

compound NC1=N[C@](CF)(c2cc(Oc3cccc(Cl)n3)ccc2F)C[C@@H](C(F)(F)F)O1 [Example 100] , pIC50 observed: 5.80

Entry NC1=N[C@](CF)(c2cc(NC(=O)c3ccc(Cl)cn3)cc(F)c2F)C[C@@H](C(F)(F)F)O1 [Example 152] — recorded pIC50 = 7.59

In plain terms, C[C@@]1(c2nc(NC(=O)c3nn(C(F)F)cc3Cl)ccc2F)C[C@@H](C(F)(F)F)OC(N)=N1 [Example 88] has a documented pIC50 of 7.49

Measured pIC50 of CC(C)n1cc(Cl)c(C(=O)Nc2cnc(F)c([C@]3(C)C[C@@H](C(F)(F)F)OC(N)=N3)c2)n1 [Example 71] : 4.41

Sample Cc1cc(OC(F)F)cnc1C(=O)Nc1ccc(F)c([C@]2(CF)C[C@@H](C(F)(F)F)OC(N)=N2)c1 [Example 42] ; pIC50 observed: 7.59

Given item C[C@@]1(c2cc(NC(=O)c3ccc(Cl)cn3)cc(F)c2F)C[C@@H](C(F)(F)F)OC(N)=N1 [Example 164] , the value recorded as its pIC50 is 7.62

Recorded pIC50 (compound NC1=N[C@](CF)(c2cc(Nc3ccnc(Br)c3)ccc2F)C[C@@H](C(F)(F)F)O1 [Example 17] ): 5.19

pIC50 in this record for NC1=N[C@](CF)(c2cc(Nc3nccc4cn(C(F)F)nc34)ccc2F)C[C@@H](C(F)(F)F)O1 [Example 20, 2,2,2-trifluoroacetate] : 4.48

// field: pIC50; key: COc1cnc(C(=O)Nc2cc(F)c(F)c([C@]3(C)C[C@@H](C(F)(F)F)OC(N)=N3)c2)cn1 [Example 165] ; value = 7.11

The recorded pIC50 for NC1=N[C@](CF)(c2cc(C(=O)NC3CC3)ccc2F)C[C@@H](C(F)(F)F)O1 [Example 182] is 4.94

Consider NC1=N[C@](CF)(c2nc(NC(=O)c3nn(C(F)F)cc3Cl)ccc2F)C[C@@H](C(F)(F)F)O1 [Example 135] . Its measured pIC50 is 7.28

// NC1=N[C@](CF)(c2cc(NC(=O)c3ccc(C(F)F)cn3)ccc2F)C[C@@H](C(F)(F)F)O1 [Example 41] : pIC50 value = 7.14

Consider NC1=N[C@](CF)(c2cc(Nc3ncc(F)c4cc(C#CC5CC5)cnc34)ccc2F)C[C@@H](C(F)(F)F)O1 [Example 54] . Its measured pIC50 is 7.48

The recorded pIC50 for entry C[C@@]1(c2cc(Nc3nccc4cc(C#N)cnc34)cc(F)c2F)C[C@@H](C(F)(F)F)OC(N)=N1 [Example 180] equals 7.85

Memo: NC1=N[C@](CF)(c2cc(NC(=O)c3ncc(C(F)F)cc3Cl)ccc2F)C[C@@H](C(F)(F)F)O1 [Example 40] , reported pIC50: 6.89
